Assay: LogP and LogD determination, 1-octanol/phosphate buffer partitioning
Format: physicochemical
Settings: 1-octanol/phosphate buffer 1:1 (v/v), pH 3
measure_name: logP at 24 h
Give the value as a plain number.

Just so you know, measured logP at 24 h for "CC(C)/N=c1\cc2n(-c3ccc(Cl)cc3)c3ccccc3nc-2cc1Nc1ccc(Cl)cc1" came out at 7.66
